E max (% Dex), Naive values for the compounds below.
- Target System: glucocorticoid receptor (NR3C1) (Homo sapiens)
- Construct: BEAS-2B cells stably transfected with a glucocorticoid response element (2×GRE) driven luciferase reporter plasmid; endogenous in cells; host or cells: BEAS-2B human bronchial epithelial cells stably carrying a 2×GRE luciferase reporter
- Test Details: 2×GRE luciferase reporter activation by NR3C1 ligands in BEAS-2B cells
- Format: cell-based
- Condition Description: BEAS-2B 2×GRE reporter, no TNF, 6 h; percent of 1 μM dexamethasone
- Protocol: BEAS-2B cells stably transfected with a glucocorticoid response element (2×GRE) driven luciferase reporter plasmid, pGL3.neo.TATA.neo [23], were cultured in medium containing 0.25 mg/ml G-418 (Promega, Madison, WI). Cells were grown to confluence in 24 or 48 well plates and incubated overnight in serum-free media prior to experiments. […]
Endpoint: E max (% Dex), Naive

>>> assay_result("C[C@@H]1C[C@H]2[C@@H]3C[C@H](F)C4=CC(=O)C=C[C@]4(C)[C@@]3(F)[C@@H](O)C[C@]2(C)[C@@]1(OC(=O)C1C(C)(C)C1(C)C)C(=O)OCC#N [GW870086X]")
50.1
>>> assay_result("C[C@]12C=CC(=O)C=C1CC[C@@H]1[C@@H]2[C@@H](O)C[C@@]2(C)[C@H]1C[C@H]1O[C@@H](C3CCCCC3)O[C@]12C(=O)CO [Des-ciclesonide]")
76.0
>>> assay_result("CCC(=O)O[C@]1(C(=O)SCF)[C@H](C)C[C@H]2[C@@H]3C[C@H](F)C4=CC(=O)C=C[C@]4(C)[C@@]3(F)[C@@H](O)C[C@@]21C [Fluticasone Propionate]")
111.2
>>> assay_result("C[C@@H]1C[C@H]2[C@@H]3CCC4=CC(=O)C=C[C@]4(C)[C@@]3(F)[C@@H](O)C[C@]2(C)[C@H]1C(=O)CC#N [RU24858]")
74.9
>>> assay_result("C[C@@H]1C[C@H]2[C@@H]3CCC4=CC(=O)C=C[C@]4(C)[C@@]3(F)[C@@H](O)C[C@]2(C)[C@@]1(O)C(=O)CO [Dexamethasone]")
100

----------
- Test system: JUN (c-Jun) phosphorylation
- Test Details: Western blot of TNF-induced JUN phosphorylation in BEAS-2B cells
- Assay type: cell-based, human
- Condition Description: 30 min pre-treatment, TNF 10 ng/ml 15 min, western blot (S1 Fig.), read-out: EC50 for decrease of TNF-induced JUN phosphorylation
Endpoint: EC50

>>> assay_result("CCOc1nc(NC(=O)Cc2cc(OC)ccc2OC)cc(N)c1C#N [JNK inhibitor VIII]")
"~0.3 µM"

----------
- Target System: glucocorticoid receptor (NR3C1) (Homo sapiens, UniProt P04150)
- Construct: BEAS-2B cells stably transfected with a glucocorticoid response element (2×GRE) driven luciferase reporter plasmid; endogenous in cells; host or cells: BEAS-2B human bronchial epithelial cells stably carrying a 2×GRE luciferase reporter
- Sequence (P04150 whole entry): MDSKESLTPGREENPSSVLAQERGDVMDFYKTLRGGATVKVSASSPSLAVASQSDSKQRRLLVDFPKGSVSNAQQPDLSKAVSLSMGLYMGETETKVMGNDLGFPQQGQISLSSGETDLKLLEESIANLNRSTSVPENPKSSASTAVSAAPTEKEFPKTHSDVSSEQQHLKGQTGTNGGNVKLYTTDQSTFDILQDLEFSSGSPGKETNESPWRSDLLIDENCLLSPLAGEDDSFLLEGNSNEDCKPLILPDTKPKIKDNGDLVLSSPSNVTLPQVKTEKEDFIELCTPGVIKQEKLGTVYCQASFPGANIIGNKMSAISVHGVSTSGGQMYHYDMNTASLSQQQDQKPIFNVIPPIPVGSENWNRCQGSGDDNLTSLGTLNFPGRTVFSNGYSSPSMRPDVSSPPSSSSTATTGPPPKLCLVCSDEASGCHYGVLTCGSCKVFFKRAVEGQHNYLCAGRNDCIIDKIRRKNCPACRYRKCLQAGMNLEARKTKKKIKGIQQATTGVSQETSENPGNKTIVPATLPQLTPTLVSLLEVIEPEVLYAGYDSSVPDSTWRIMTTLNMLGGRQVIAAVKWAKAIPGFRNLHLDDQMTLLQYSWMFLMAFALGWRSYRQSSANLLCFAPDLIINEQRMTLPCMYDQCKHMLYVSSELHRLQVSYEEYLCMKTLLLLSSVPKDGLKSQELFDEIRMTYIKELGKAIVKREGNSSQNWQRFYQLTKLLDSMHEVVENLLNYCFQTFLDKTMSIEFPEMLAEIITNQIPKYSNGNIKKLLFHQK
- Test Details: 2×GRE luciferase reporter activation by NR3C1 ligands in BEAS-2B cells
- Assay type: cell-based
- Condition Description: BEAS-2B 2×GRE reporter, TNF 10 ng/ml pre-treatment 1 h, 6 h; percent of 1 μM dexamethasone
Decide using E max (% Dex), +TNF: a value greater than or equal to 50 % Dex is satisfied, a smaller one is not satisfied.

>>> assigned_class("C[C@@H]1C[C@H]2[C@@H]3C[C@H](F)C4=CC(=O)C=C[C@]4(C)[C@@]3(F)[C@@H](O)C[C@]2(C)[C@@]1(OC(=O)C1C(C)(C)C1(C)C)C(=O)OCC#N [GW870086X]")
"not satisfied"
>>> assigned_class("C[C@]12C=CC(=O)C=C1CC[C@@H]1[C@@H]2[C@@H](O)C[C@@]2(C)[C@H]1C[C@H]1O[C@@H](C3CCCCC3)O[C@]12C(=O)CO [Des-ciclesonide]")
"not satisfied"
>>> assigned_class("C[C@@H]1C[C@H]2[C@@H]3CCC4=CC(=O)C=C[C@]4(C)[C@@]3(F)[C@@H](O)C[C@]2(C)[C@@]1(O)C(=O)CO [Dexamethasone]")
"satisfied"
>>> assigned_class("C[C@@H]1C[C@H]2[C@@H]3CCC4=CC(=O)C=C[C@]4(C)[C@@]3(F)[C@@H](O)C[C@]2(C)[C@H]1C(=O)CC#N [RU24858]")
"not satisfied"
